experiment: Quantitative High-Throughput drug screen in 47 multiple myeloma cell lines against the NCATS MIPE library collection: JIM1_ECACC cell viability assay (AID 1918964); details: JIM1 myeloma viability, CellTiter-Glo ATP luminescence, 48 h; series mostly up to 45.8 µM
Records with an inconclusive call do not appear. Active and inactive are the calls of the source. Calls come from the whole dose curve; as a rule, active = well fitted cell-killing curve with a large enough effect; inconclusive = small, poorly fitted or top-dose-only effect, or effect the other way; inactive = no such curve, though single readings can be large or run the other way.
Response enum: 1 (active), 0 (inactive)

- Molecule: "CC(C(=O)O)c1ccc(-c2ccccc2)c(F)c1 (stereo unspecified)"
  Category: 0
- Molecule: "C=C1C(=O)OC(CCCCCCCC)C1C(=O)O (stereo unspecified)"
  Category: 0
- Molecule: "O=C1c2c(O)cc(O)cc2O[C@H](c2cc(O)c(O)c(O)c2)[C@H]1O"
  Category: 1
- Molecule: "CS(=O)(=O)N(Cc1ccco1)CC(O)Cn1c2ccccc2c2ccccc21 (stereo unspecified)"
  Category: 0
- Molecule: "O=C(CCCCCCC(=O)Nc1ccccc1)NO"
  Category: 1

Now consider a different molecule.
input: Please state the recorded outcome for this molecule: `CCCCCCCCCCCC1=C(O)C(=O)C=C(O)C1=O`
output: 1
